# half-life values compiled below
- assay_summary: Terminal phase half life in rat at 3 mg/kg, po and 3 mg/kg, iv
- Format: ADME, organism-based
- condition_parameters: in vivo, read-out: beta t1/2 (converted)
Note: unit h is implicit; provide only the numeric part.

cpd_smiles: CC(=O)N1C[C@@H](F)C[C@H]1c1nc(C(=O)NCc2ccc(F)c(C)c2)c(O)c(=O)n1C
unit_of_measure: h
value_observed: 1.4

Could you share which half-life value was measured for `CC(=O)N1C[C@@H](F)C[C@H]1c1nc(C(=O)NCc2ccc(C)c(Cl)c2)c(O)c(=O)n1C` ?
3

Report half-life for `COC(=O)N1C[C@@H](F)C[C@H]1c1nc(C(=O)NCc2ccc(F)cc2)c(O)c(=O)n1C` please.
0.6

# query: half-life of entry `Cn1c([C@@H]2C[C@H](F)CN2C(=O)c2cnccn2)nc(C(=O)NCc2ccc(F)cc2)c(O)c1=O`
0.2

// returns reported half-life for input `CC(=O)N1C[C@@H](F)C[C@H]1c1nc(C(=O)NCc2ccc(F)c(Cl)c2)c(O)c(=O)n1C`
0.7

Look at this compound and give its reported half-life. `CC(=O)N1C[C@@H](F)C[C@H]1c1nc(C(=O)NCc2ccc(F)cc2)c(O)c(=O)n1C`
0.3

Would you kindly share the measured half-life for `COC(=O)N1C[C@@H](F)C[C@H]1c1nc(C(=O)NCc2ccc(F)c(Cl)c2)c(O)c(=O)n1C` ?
1.5

Fill in: half-life of `COC(=O)N1C[C@@H](F)C[C@H]1c1nc(C(=O)NCc2ccc(C)c(Cl)c2)c(O)c(=O)n1C` is ___
7.4

What does the data say about its half-life? Entry: `CN(C)C(=O)C(=O)N1C[C@@H](F)C[C@H]1c1nc(C(=O)NCc2ccc(F)cc2)c(O)c(=O)n1C`
1.6
